B1: C9orf9 (parent)
chain: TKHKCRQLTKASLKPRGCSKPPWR

Variants of: B1
Assay: protein stability index of a GFP-peptide fusion (GPS, HEK-293T) (PSI 1-6); higher = more stable;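 note: lentivirally expressed fusions sorted by FACS into six bins by GFP to DsRed ratio, PSI derived from sequencing read proportions per bin multiplied by bin number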
Conditions: c terminus: a fixed tail appended
readout type: protein stability index
Numbers only.

Solved cases (3 shown):
In: Answer with reported protein stability index of "P21W"
Out: 2.28

In: Answer with reported protein stability index of "A11N"
Out: 2.95

In: Answer with reported protein stability index of "P21N"
Out: 2.9

Give protein stability index for each listed item.
1. K2N
2. K14W
3. T9N
4. C5H
5. T9M

Out:
2.78
2.56
3.87
2.44
2.48

Give protein stability index for each listed item.
1. A11F
2. L8E

Out:
[1.67, 3.62]

Give protein stability index for each listed item.
1. Q7F
2. L13D
3. K4Q
4. R24D
5. P21L
6. R6S

Out:
1: 1.63; 2: 3.64; 3: 2.88; 4: 3.17; 5: 3.59; 6: 2.59
